Target: UniProtKB P11509
Sequence (P11509 whole entry): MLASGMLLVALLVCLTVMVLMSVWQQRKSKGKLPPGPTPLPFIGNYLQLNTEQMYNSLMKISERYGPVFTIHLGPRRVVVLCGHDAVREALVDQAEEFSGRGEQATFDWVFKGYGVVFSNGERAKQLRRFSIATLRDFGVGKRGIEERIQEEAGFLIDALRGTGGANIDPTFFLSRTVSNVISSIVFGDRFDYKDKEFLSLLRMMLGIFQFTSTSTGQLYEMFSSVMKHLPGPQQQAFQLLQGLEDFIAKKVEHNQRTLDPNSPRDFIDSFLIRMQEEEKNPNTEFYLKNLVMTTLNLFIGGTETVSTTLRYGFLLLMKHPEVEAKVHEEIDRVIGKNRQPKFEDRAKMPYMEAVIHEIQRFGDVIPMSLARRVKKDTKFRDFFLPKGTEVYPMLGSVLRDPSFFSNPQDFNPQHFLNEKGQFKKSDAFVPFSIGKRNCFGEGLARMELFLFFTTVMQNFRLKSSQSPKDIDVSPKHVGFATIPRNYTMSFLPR
pKi: −log10 of the molar value.
Values of pKi greater than or equal to 5 map to label 1; values below map to label 0.

[[record]]
smiles_input = "O=[N+]([O-])c1ccc(-c2cccnc2)s1"
class_assignment = "label 0"

[[record]]
smiles_input = "c1cncc(-c2nccs2)c1"
class_assignment = "label 1"

[[record]]
smiles_input = "Cc1ccnc(-c2cccnc2)c1"
class_assignment = "label 1"

[[record]]
smiles_input = "c1cncc(-n2cnnn2)c1"
class_assignment = "label 0"

[[record]]
smiles_input = "Cc1nc(-c2cccnc2)c[nH]1"
class_assignment = "label 1"

[[record]]
smiles_input = "Cn1cnc(-c2cccnc2)c1"
class_assignment = "label 1"

[[record]]
smiles_input = "CC(=O)c1ccc(-c2cccnc2)s1"
class_assignment = "label 1"

[[record]]
smiles_input = "CNc1ccc(-c2cccnc2)s1"
class_assignment = "label 1"

[[record]]
smiles_input = "CNCC#Cc1cccnc1"
class_assignment = "label 1"

[[record]]
smiles_input = "Cc1cn(-c2cccnc2)cn1"
class_assignment = "label 1"

[[record]]
smiles_input = "O=Cc1ccc(-c2cccnc2)o1"
class_assignment = "label 0"

[[record]]
smiles_input = "O/N=C/c1ccc(-c2cccnc2)o1"
class_assignment = "label 1"

[[record]]
smiles_input = "c1cncc(-c2cncnc2)c1"
class_assignment = "label 0"

